System Name: 11-beta-hydroxysteroid dehydrogenase 1 (Homo sapiens)
Assay Info: Inhibition of 11beta-HSD1 (unknown origin) expressed in HEK293 cells lysate assessed as residual enzyme activity at 20 uM
Format: cell-free
Sequence (P28845 whole entry, looked up): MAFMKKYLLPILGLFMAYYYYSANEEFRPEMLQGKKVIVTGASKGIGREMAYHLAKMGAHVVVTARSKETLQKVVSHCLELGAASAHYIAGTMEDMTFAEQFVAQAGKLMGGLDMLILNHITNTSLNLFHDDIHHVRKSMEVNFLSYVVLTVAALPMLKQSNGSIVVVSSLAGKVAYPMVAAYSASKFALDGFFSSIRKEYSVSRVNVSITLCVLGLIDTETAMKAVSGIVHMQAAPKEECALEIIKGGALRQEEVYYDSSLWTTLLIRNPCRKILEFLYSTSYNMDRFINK
A collection of compounds and their measured Activity

-- ask Suppose we examine the compound `O=C(CSc1nccc(O)n1)Nc1cccc2nsnc12` ; what Activity value has been reported?
-- reply > 70%

-- ask Data request, read-out Activity, for `O=S(=O)(Nc1ccc(O)c(Cl)c1)c1ccc(F)cc1`
-- reply > 70%

-- ask For the compound `Cc1cc(S(=O)(=O)Nc2cccc(O)c2)c(C)cc1Cl` , what Activity is on record?
-- reply > 70%

-- ask Sample `Cc1cc(C)c(OCC(=O)N/N=C/c2ccc(O)cc2O)c(Br)c1` — what was its Activity?
-- reply 69%

-- ask State the recorded Activity for this entry: `Cc1ccc(NS(=O)(=O)c2cccc(Br)c2)cc1O`
-- reply > 70%

-- ask # get_value(readout='Activity', item= `Cc1ccc(NS(=O)(=O)c2cccc(C(F)(F)F)c2)cc1O` )
-- reply > 70%

====

System Name: 11-beta-hydroxysteroid dehydrogenase 1 (Homo sapiens, UniProt P28845)
Assay Info: Inhibition of 11beta-HSD1 (unknown origin) expressed in HEK293 cells lysate
Assay type: cell-free
Sequence (P28845 whole entry): as the sequence (P28845 whole entry, looked up) above
Below: a set of entries, each annotated with reported pIC50.
Please note pIC50 is a logarithmic value: minus log10 of concentration in mol/L. Answer with that number alone.

Field: example entries. Status: answers known.
- Smiles Record: "CC(C)(C)c1ccc(S(=O)(=O)Oc2ccccc2O)cc1"
  pIC50: 5.68
- Smiles Record: "COc1ccc(S(=O)(=O)Nc2ccc(O)c3c2CCCC3)cc1"
  pIC50: 5.09

Please turn your attention to the following entry.
-- ask Which pIC50 reading was recorded for the compound `COc1ccc(S(=O)(=O)Nc2cccc(O)c2)c2c1CCCC2` ?
-- reply 4.89

====

# Activity listing for each entry below
System Name: 17-beta-hydroxysteroid dehydrogenase type 3 (Homo sapiens) (UniProt P37058)
Sequence (whole entry): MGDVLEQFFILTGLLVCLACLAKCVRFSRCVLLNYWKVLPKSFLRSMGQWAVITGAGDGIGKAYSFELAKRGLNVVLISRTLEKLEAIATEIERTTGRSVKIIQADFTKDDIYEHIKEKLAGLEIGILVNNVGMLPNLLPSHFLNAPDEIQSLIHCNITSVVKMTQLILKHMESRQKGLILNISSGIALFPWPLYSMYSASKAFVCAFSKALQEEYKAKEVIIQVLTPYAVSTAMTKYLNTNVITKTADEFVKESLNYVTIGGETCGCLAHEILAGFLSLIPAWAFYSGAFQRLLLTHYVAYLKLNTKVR
Assay Info: Inhibition of 17beta-HSD3 (unknown origin) expressed in intact HEK293 cells assessed as residual enzyme activity at 20 uM
Assay type: cell-based

Consider the worked cases shown below.
- Smiles Record: "Cc1cc(C)c(S(=O)(=O)Nc2cccc(O)c2)cc1C"
  Activity: "43%"
- Smiles Record: "Cc1ccc(NS(=O)(=O)c2cccc(C(F)(F)F)c2)cc1O"
  Activity: "> 70%"
- Smiles Record: "COc1ccc(S(=O)(=O)Nc2ccc(O)c3c2CCCC3)cc1"
  Activity: "> 70%"

-- ask Quick check: Activity of `Cc1ccc(NS(=O)(=O)c2cccc(Br)c2)cc1O` ?
-- reply > 70%

-- ask # Activity lookup, item `Clc1ccc(Cl)c(-c2ccc(CNc3nn[nH]n3)o2)c1`
-- reply > 70%

-- ask If you can, please state the reported Activity value of `O=C(CSc1nccc(O)n1)Nc1cccc2nsnc12` .
-- reply > 70%
